Entries annotated with measured TGI
# System: SNB-19 CNS
# ASSAY_PROCEDURE: NCI tumour cell line growth inhibition, 48 h

- COMPOUND: "O=CC1=CCC2c3[nH]c4ccccc4c3CCN2C1 (stereo not given)"
  TGI: "> 396 µM"
- COMPOUND: "COc1ccc(OCC(O)CN2CCN(c3ccc(Cl)cc3)CC2)cc1 (stereo not given)"
  TGI: "> 100 µM"
- COMPOUND: "COc1ccc2c(c1)[n+](=O)c(C(C)=O)c(C)n2[O-]"
  TGI: "> 100 µM"
- COMPOUND: "COC(=O)c1ccc2[nH]c(O)c(C(=Nc3ccc(N(C)C(=O)CN4CCN(C)CC4)cc3)c3ccccc3)c2c1"
  TGI: "8.33 µM"

So what does the record say about TGI for O=C1C2CC[C@@H]3C(=O)C(Cl)(Cl)[C@@H]3CCC2C1(Cl)Cl (stereo not given in full) ? > 100 µM

The measured values listed here are drawn from PubChem BioAssay (NCI).
